target: HPK1 (SLP76 phosphorylation at Ser376 in Jurkat and EL-4 cells) (Homo sapiens); type: cell-based; settings: αCD3/αCD28 Dynabeads stimulated cells, pSLP76 (Ser376) detection; read-out: HPK1 pSLP76 IC50
pIC50: −log10 of the molar value.
Parameter: pIC50. Scope: all listed entries.

The following compounds have reported results that may help.
INSERT INTO assay_data (compound_smiles, property_measured, measured) VALUES
  ('Cc1cc(Nc2ncc3c(n2)CN(c2cnc4c(c2C)NCCO4)CC3)ccc1CS(C)(=O)=O', 'pIC50', '> 6.30'),
  ('Cc1c(N2CCc3cnc(Nc4ccc(S(C)(=O)=O)cc4)nc3C2)cnc2c1NCCO2', 'pIC50', '6.00 to 6.30'),
  ('Cc1c(N2CCc3cnc(Nc4ccc(CS(=O)(=O)N(C)C)cc4)cc3C2)cnc2c1NCCO2', 'pIC50', '> 6.30'),
  ('Cc1cc(Nc2cc3c(cn2)CCN(c2cnc4c(c2Cl)NCCO4)C3)ccc1NC(=O)CN1CCC1', 'pIC50', '> 6.30'),
  ('Cc1c(N2CCc3cnc(Nc4ccc(CS(C)(=O)=O)cc4)nc3C2)cnc2c1NCCC2=O', 'pIC50', '< 6.00'),
  ('COc1cccc(F)c1N1CCc2cnc(Nc3cnc4c(c3)CN(C)CC4)nc2C1', 'pIC50', '< 6.00'),
  ('Cc1c(N2CCc3cnc(Nc4ccc(NC(=O)CN5CCOCC5)c(C(F)(F)F)c4)nc3C2)cnc2c1NCCO2', 'pIC50', '> 6.30');

As a next step, examine the compound that follows.
Returns the measured pIC50 for the input compound. Input: Cc1c(N2CCc3cnc(Nc4ccc(C(C)(C)S(C)(=O)=O)nc4)nc3C2)cnc2c1NCCO2
< 6.00

* * *

biological target: HPK1 (SLP76 phosphorylation at Ser376 in Jurkat and EL-4 cells) (Homo sapiens); format: cell-based; conditions: αCD3/αCD28 Dynabeads stimulated cells, pSLP76 (Ser376) detection; read-out: HPK1 pSLP76 IC50
Parameter: IC50. Scope: all listed entries.

Returns the measured IC50 for the input compound. Input: Cc1c(N2CCc3cnc(Nc4ccc(CC(=O)N5CC6(COC6)C5)cc4)nc3C2)cnc2c1NCCO2
< 0.5 µM

Returns the measured IC50 for the input compound. Input: Cc1c(N2CCc3cnc(Nc4ccc(OC[C@@H]5COCCO5)cc4)nc3C2)cnc2c1NCCO2
0.5 to 1 µM

Returns the measured IC50 for the input compound. Input: Cc1c(N2CCc3cnc(Nc4ccc(Cn5nccn5)cc4)nc3C2)cnc2c1NCCO2
< 0.5 µM

Returns the measured IC50 for the input compound. Input: COC1CCN(c2ccc(Nc3ncc4c(n3)CN(c3cnc5c(c3C)NCCO5)CC4)cc2)CC1
0.5 to 1 µM

* * *

Parameter: pIC50. Scope: all listed entries.
target: HPK1 (SLP76 phosphorylation at Ser376 in Jurkat and EL-4 cells) (Homo sapiens, UniProt Q92918); format: cell-based; settings: αCD3/αCD28 Dynabeads stimulated cells, pSLP76 (Ser376) detection; read-out: HPK1 pSLP76 IC50
Sequence (Q92918 whole entry, looked up): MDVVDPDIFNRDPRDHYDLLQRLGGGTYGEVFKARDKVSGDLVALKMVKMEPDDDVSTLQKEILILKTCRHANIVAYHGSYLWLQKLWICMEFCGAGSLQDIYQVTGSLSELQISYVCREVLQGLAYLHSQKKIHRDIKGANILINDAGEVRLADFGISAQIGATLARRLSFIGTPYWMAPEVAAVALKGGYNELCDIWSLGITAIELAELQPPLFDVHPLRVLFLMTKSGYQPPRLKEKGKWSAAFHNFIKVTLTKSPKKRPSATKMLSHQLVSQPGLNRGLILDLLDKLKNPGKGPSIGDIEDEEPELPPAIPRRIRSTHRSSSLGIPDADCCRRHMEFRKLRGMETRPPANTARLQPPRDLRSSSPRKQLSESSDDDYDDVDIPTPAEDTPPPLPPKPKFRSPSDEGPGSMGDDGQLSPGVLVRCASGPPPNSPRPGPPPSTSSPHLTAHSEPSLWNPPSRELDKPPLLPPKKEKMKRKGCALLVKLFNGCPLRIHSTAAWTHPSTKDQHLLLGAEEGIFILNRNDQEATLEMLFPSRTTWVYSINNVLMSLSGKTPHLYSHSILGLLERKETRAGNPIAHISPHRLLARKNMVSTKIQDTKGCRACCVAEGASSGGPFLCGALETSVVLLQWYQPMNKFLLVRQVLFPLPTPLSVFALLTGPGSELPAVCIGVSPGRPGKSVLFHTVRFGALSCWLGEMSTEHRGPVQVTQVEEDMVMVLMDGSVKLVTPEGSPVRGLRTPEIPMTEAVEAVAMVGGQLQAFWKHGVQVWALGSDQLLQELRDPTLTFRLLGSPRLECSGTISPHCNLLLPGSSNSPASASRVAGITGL
pIC50: −log10 of the molar value.

The following compounds have reported results that may help.
INSERT INTO results (compound_smiles, measured) VALUES
  ('Cc1c(N2CCc3cnc(Nc4cnc5c(c4)CN(CC(F)(F)F)CC5)nc3C2)cnc2c1NCCO2', '< 6.00'),
  ('Cc1c(N2CCc3cnc(Nc4ccc5c(c4)CN(C)S(=O)(=O)C5)nc3C2)cnc2c1NCCO2', '> 6.30'),
  ('Cc1cc(Nc2ncc3c(n2)CN(c2cnc4c(c2C)NCCO4)CC3)cnc1CS(C)(=O)=O', '6.00 to 6.30'),
  ('Cc1cc(Nc2cc3c(cn2)CCN(c2cnc4c(c2C)NCCO4)C3)ccc1NC(=O)CN1CCOCC1', '> 6.30');

As a next step, examine the compound that follows.
Returns the measured pIC50 for the input compound. Input: Cc1c(N2CCc3cnc(Nc4ccc(CS(C)(=O)=O)nc4)nc3C2)cnc2c1NCCO2
> 6.30
